Tested on: Enterococcus sp.
Run description: In vitro antibacterial evaluation: minimum inhibitory concentration (MIC), broth dilution method
Type: cell-based
Assay setup: Enterococcus faecium (GC 4556); broth dilution, 18 hours at 35° C.
Recorded MIC Enterococcus faecium (GC 4556) for the following molecules

# Molecule, System under test, Result units, MIC Enterococcus faecium (GC 4556)
rows = [
    ("COc1ccc(Oc2cccc(-c3nc4cc(CC5NC(=O)C(C(C)c6ccccc6)NC(=O)CNC(=O)C(CO)NC(=O)C(C(O)C6CNC(=N)N6C6OC(CO)C(O)C(O)C6O)NC(=O)C(C(O)C6CNC(=N)N6)NC5=O)ccc4o3)c2)cc1 (centres unmarked)", "Enterococcus sp.", "µg/mL", 32),
    ("CC(c1ccccc1)C1NC(=O)CNC(=O)C(CO)NC(=O)C(C(O)C2CNC(=N)N2C2OC(CO)C(O)C(O)C2O)NC(=O)C(C(O)C2CNC(=N)N2)NC(=O)C(Cc2ccc3oc(SCc4ccc(-c5ccccc5)cc4)nc3c2)NC1=O (centres unmarked)", "Enterococcus sp.", "µg/mL", 8),
    ("CC(=O)Nc1cc(CC2NC(=O)C(C(C)c3ccccc3)NC(=O)CNC(=O)C(CO)NC(=O)C(C(O)C3CNC(=N)N3C3OC(CO)C(O)C(O)C3O)NC(=O)C(C(O)C3CNC(=N)N3)NC2=O)ccc1O (centres unmarked)", "Enterococcus sp.", "µg/mL", 64),
    ("CC(c1ccccc1)C1NC(=O)CNC(=O)C(CO)NC(=O)C(CC2CNC(=N)N2C2OC(CO)C(O)C(O)C2O)NC(=O)C(CC2CNC(=N)N2)NC(=O)C(Cc2ccc3oc(-c4ccc5c(c4)Cc4ccccc4-5)nc3c2)NC1=O (centres unmarked)", "Enterococcus sp.", "µg/mL", 16),
    ("CC(c1ccccc1)C1NC(=O)CNC(=O)C(CO)NC(=O)C(C(O)C2CNC(=N)N2C2OC(CO)C(O)C(O)C2O)NC(=O)C(C(O)C2CNC(=N)N2)NC(=O)C(Cc2ccc3oc(SCc4ccccc4)nc3c2)NC1=O (centres unmarked)", "Enterococcus sp.", "µg/mL", 32),
    ("CC(c1ccccc1)C1NC(=O)CNC(=O)C(CO)NC(=O)C(C(O)C2CNC(=N)N2C2OC(CO)C(O)C(O)C2O)NC(=O)C(C(O)C2CNC(=N)N2)NC(=O)C(Cc2ccc3oc(-c4cccc(F)c4)nc3c2)NC1=O (centres unmarked)", "Enterococcus sp.", "µg/mL", 64),
    ("CC(c1ccccc1)C1NC(=O)CNC(=O)C(CO)NC(=O)C(C(O)C2CNC(=N)N2C2OC(CO)C(O)C(O)C2O)NC(=O)C(C(O)C2CNC(=N)N2)NC(=O)C(Cc2ccc(OC3OC(CO)C(OC4OC5COC(c6cccc(-c7ccccc7)c6)OC5C(O)C4O)C(O)C3O)cc2)NC1=O (centres unmarked)", "Enterococcus sp.", "µg/mL", 2),
    ("Cc1ccc(Oc2cccc(-c3nc4cc(CC5NC(=O)C(C(C)c6ccccc6)NC(=O)CNC(=O)C(CO)NC(=O)C(C(O)C6CNC(=N)N6C6OC(CO)C(O)C(O)C6O)NC(=O)C(C(O)C6CNC(=N)N6)NC5=O)ccc4o3)c2)cc1 (centres unmarked)", "Enterococcus sp.", "µg/mL", 8),
]

* * *

System: Staphylococcus sp.
Run description: In vitro antibacterial evaluation: minimum inhibitory concentration (MIC), broth dilution method
Format: cell-based
Assay setup: broth dilution, 5×10^5 CFU/mL, 18 hours at 35° C.
Text: […]
Recorded MIC Staphylococcus aureus (GC 4544) for the following compounds

# Compound, System under test, Result comparator, MIC Staphylococcus aureus (GC 4544) (µg/mL)
measured = [
    ("CC(c1ccccc1)C1NC(=O)CNC(=O)C(CO)NC(=O)C(C(O)C2CNC(=N)N2C2OC(CO)C(O)C(O)C2O)NC(=O)C(C(O)C2CNC(=N)N2)NC(=O)C(Cc2ccc(OC3OC(CO)C(OC4OC5COC(c6cccc(OCc7ccc([N+](=O)[O-])cc7)c6)OC5C(O)C4O)C(O)C3O)cc2)NC1=O (stereo not shown)", "Staphylococcus sp.", ">", 64),
    ("CC(C)=CCOc1cccc(C2OCC3OC(OC4C(CO)OC(Oc5ccc(CC6NC(=O)C(C(C)c7ccccc7)NC(=O)CNC(=O)C(CO)NC(=O)C(C(O)C7CNC(=N)N7C7OC(CO)C(O)C(O)C7O)NC(=O)C(C(O)C7CNC(=N)N7)NC6=O)cc5)C(O)C4O)C(O)C(O)C3O2)c1 (stereo not shown)", "Staphylococcus sp.", "=", 16),
    ("CC(c1ccccc1)C1NC(=O)CNC(=O)C(CO)NC(=O)C(C(O)C2CNC(=N)N2C2OC(CO)C(O)C(O)C2O)NC(=O)C(C(O)C2CNC(=N)N2)NC(=O)C(Cc2ccc(OC3OC(CO)C(OC4OC5COC(c6cccc(-c7ccccc7)c6)OC5C(O)C4O)C(O)C3O)cc2)NC1=O (stereo not shown)", "Staphylococcus sp.", "=", 2),
    ("CCOc1cc(C2OCC3OC(OC4C(CO)OC(Oc5ccc(CC6NC(=O)C(C(C)c7ccccc7)NC(=O)CNC(=O)C(CO)NC(=O)C(C(O)C7CNC(=N)N7C7OC(CO)C(O)C(O)C7O)NC(=O)C(C(O)C7CNC(=N)N7)NC6=O)cc5)C(O)C4O)C(O)C(O)C3O2)ccc1OC (stereo not shown)", "Staphylococcus sp.", "=", 16),
    ("CC(c1ccccc1)C1NC(=O)CNC(=O)C(CO)NC(=O)C(C(O)C2CNC(=N)N2C2OC(CO)C(O)C(O)C2O)NC(=O)C(C(O)C2CNC(=N)N2)NC(=O)C(Cc2ccc(OC3OC(CO)C(OC4OC5COC(c6ccc(C=Cc7ccccc7)cc6)OC5C(O)C4O)C(O)C3O)cc2)NC1=O (stereo not shown)", "Staphylococcus sp.", "=", 8),
    ("CC(c1ccccc1)C1NC(=O)CNC(=O)C(CO)NC(=O)C(C(O)C2CNC(=N)N2C2OC(CO)C(O)C(O)C2O)NC(=O)C(C(O)C2CNC(=N)N2)NC(=O)C(Cc2ccc(OC3OC(CO)C(OC4OC5COC(c6ccc(C(=O)c7ccccc7)cc6)OC5C(O)C4O)C(O)C3O)cc2)NC1=O (stereo not shown)", "Staphylococcus sp.", "=", 2),
    ("CCCc1ccc(C2OCC3OC(OC4C(CO)OC(Oc5ccc(CC6NC(=O)C(C(C)c7ccccc7)NC(=O)CNC(=O)C(CO)NC(=O)C(C(O)C7CNC(=N)N7C7OC(CO)C(O)C(O)C7O)NC(=O)C(C(O)C7CNC(=N)N7)NC6=O)cc5)C(O)C4O)C(O)C(O)C3O2)cc1 (stereo not shown)", "Staphylococcus sp.", "=", 1),
]
